test: in vitro; conditions: human, uninfected MT-4 cells
VALUE KIND: CC50 at 5 days (µM)
Numbers only; they are read as µM.

Examples with answers:
{"CHEM SMILES": "CC[C@@H](COP(=O)(O)O)OC(=O)OCOc1c2n(cc(C(=O)NCc3ccc(F)cc3F)c1=O)[C@@H]1CN(C2=O)[C@@H](C)CC[C@]12CC(C)=NO2", "UNIT ABBREV": "µM", "CC50 at 5 days": 13.5}
{"CHEM SMILES": "CC1=NO[C@@]2(CC[C@H](C)N3C[C@H]2n2cc(C(=O)NCc4ccc(F)cc4F)c(=O)c(OCOC(=O)O[C@@H](C)[C@@H](C)OP(=O)(O)O)c2C3=O)C1", "UNIT ABBREV": "µM", "CC50 at 5 days": 19.9}
{"CHEM SMILES": "COC1=NO[C@@]2(CC[C@H](C)N3C[C@H]2n2cc(C(=O)NCc4ccc(F)cc4F)c(=O)c(OCOC(=O)OC[C@@H](C)COP(=O)(O)O)c2C3=O)C1", "UNIT ABBREV": "µM", "CC50 at 5 days": 21.3}

Inquiry: Requested read-out: CC50 at 5 days. Entry: CC1=NO[C@@]2(CC[C@H](C)N3C[C@H]2n2cc(C(=O)NCc4ccc(F)cc4F)c(=O)c(OCOC(=O)O[C@H](C)[C@H](C)OP(=O)(O)O)c2C3=O)C1
Reply text: 24.2

Inquiry: Given COC1=NO[C@@]2(CC[C@H](C)N3C[C@H]2n2cc(C(=O)NCc4ccc(F)cc4F)c(=O)c(OCOC(=O)OC[C@H](C)COP(=O)(O)O)c2C3=O)C1 , state its recorded CC50 at 5 days.
Reply text: 16.1

Inquiry: Consider the compound CC1=NO[C@@]2(CC[C@H](C)N3C[C@H]2n2cc(C(=O)NCc4ccc(F)cc4F)c(=O)c(OCOC(=O)O[C@H](C)[C@@H](C)OP(=O)(O)O)c2C3=O)C1 and give its measured CC50 at 5 days.
Reply text: 18.7

Inquiry: Param item = CC1=NO[C@@]2(CC[C@H](C)N3C[C@H]2n2cc(C(=O)NCc4ccc(F)cc4F)c(=O)c(OC(=O)OCC[N+](C)(C)C)c2C3=O)C1 ; retrieve measured CC50 at 5 days.
Reply text: 14.1

Inquiry: Return reported CC50 at 5 days; argument: CC[C@@H](OP(=O)(O)O)[C@@H](C)OC(=O)OCOc1c2n(cc(C(=O)NCc3ccc(F)cc3F)c1=O)[C@@H]1CN(C2=O)[C@@H](C)CC[C@]12CC(OC)=NO2
Reply text: 28.6

Inquiry: CC50 at 5 days lookup needed for CC1=NO[C@@]2(CC[C@H](C)N3C[C@H]2n2cc(C(=O)NCc4ccc(F)cc4F)c(=O)c(OCOC(=O)CCCCOP(=O)(O)O)c2C3=O)C1 , thanks.
Reply text: 20.4

Inquiry: Consider the compound CC1=NO[C@@]2(CC[C@H](C)N3C[C@H]2n2cc(C(=O)NCc4ccc(F)cc4F)c(=O)c(OCOC(=O)C(C)(C)CCN(CC(=O)O)C(=O)OCOP(=O)(O)O)c2C3=O)C1 and give its measured CC50 at 5 days.
Reply text: 8.46
